Assay: NCI Yeast Anticancer Drug Screen. Data for the mlh1 rad18 strain (AID 175)
Settings: S. cerevisiae mlh1 rad18 strain growth inhibition; at 50.0 µM (retest, dose inferred, filed as 5.0); stronger effect = higher value
About 79,000 compounds went through this panel and 15% of them were active in at least one assay; those are over-represented in the sample as a whole.
For each of the molecules below, state its growth inhibition.
Give bare numbers, in %.

Some molecules with known growth inhibition results, for comparison:
>  <molecule>
O=C(OCc1ccccc1)C(O)c1ccccc1 (configuration not stated)

>  <growth inhibition, %>
10

$$$$
>  <molecule>
[Cu+2].[NH-]c1ccccc1O.[NH-]c1ccccc1[OH2+]

>  <growth inhibition, %>
82

$$$$

Provide growth inhibition for all items below, preserving their order.
1. C1=C(c2ccccc2)[P+](c2ccccc2)(c2ccccc2)C=C(c2ccccc2)[P+]1(c1ccccc1)c1ccccc1
2. C[Si](C)(C)C1=C([Si](C)(C)C)C(Cl)(Cl)C1=O
3. Nc1ccc(-c2ccc(N)cc2S(=O)(=O)O)c(S(=O)(=O)O)c1
4. CCCCCCN(CCCCCC)CCCC(O)c1cccc2ccccc12 (configuration not stated)
5. CC(=O)Oc1c2ccccc2c(C)c2c1ccc1ccccc12

result:
[99, 38, -4, -3, 90]

###

For each of the compounds below, state its growth inhibition.
Assay: NCI Yeast Anticancer Drug Screen. Data for the rad50 strain (AID 155);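 further: 0% = growth of vehicle-only cultures of the same strain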
Conditions: S. cerevisiae rad50 strain growth inhibition; at 50.0 µM; stronger effect = higher value
About 79,000 compounds went through this panel and 15% of them were active in at least one assay; those are over-represented in the sample as a whole.
Give bare numbers, in %.

>  <compound>
CCN(CC)CCNc1ccc(C)c2sc3c(OC)cccc3c(=O)c12

>  <growth inhibition, %>
74.6

$$$$
>  <compound>
COc1cc(CNC(=O)CCCCCCCC/C=C/Br)ccc1O

>  <growth inhibition, %>
84.7

$$$$
>  <compound>
COc1cc2c(c(OC)c1OC)-c1ccc(O)c(=O)cc1C(N=Cc1ccccc1)CC2 (configuration not stated)

>  <growth inhibition, %>
-17.9

$$$$

Provide growth inhibition for all items below, preserving their order.
1. COc1cccc(C2c3cc4c(cc3OC(N3CCOCC3)C2C)OCO4)c1 (configuration not stated)
2. NC1c2ccccc2-c2ccc([N+](=O)[O-])cc21 (configuration not stated)
3. CCCCCCCCCCCC(=O)N(CCOC(=O)c1ccco1)CCOC(=O)c1ccco1
4. CS(=O)(=O)C(c1nc2nnc(NC(=O)Nc3ccc(Cl)cc3)n2[nH]c1=O)c1nc2nnc(NC(=O)Nc3ccc(Cl)cc3)n2[nH]c1=O
5. Cc1c(F)c(C)c(C(=O)O)c(C)c1F
6. COc1ccc(-c2cc(=O)c3c(C)ccnc3[nH]2)cc1
7. N#Cc1ccc([N+](=O)[O-])cc1C#N

result:
[-11.8, 40, 99, 32.2, 99.4, 87.2, 99.2]

###

Experiment: NCI Yeast Anticancer Drug Screen. Data for the mlh1 rad18 strain (AID 175)
Conditions: S. cerevisiae mlh1 rad18 strain growth inhibition; at 5.0 µM (retest, dose inferred, filed as 0.5); stronger effect = higher value
The panel holds about 79,000 compounds, 15% with a hit somewhere; the sample as a whole holds those more often.
For each of the compounds below, state its growth inhibition.
One number for each entry, in %.

Some compounds with known growth inhibition results, for comparison:
>  <compound>
Oc1ccc[nH]c1=S

>  <val>
23

$$$$
>  <compound>
COC(=O)C1C(C(=O)OC)C2(OC(c3ccc(Cl)cc3)=CC2=O)C12OC(c1ccc(Cl)cc1)=CC2=O (centres undefined)

>  <val>
13

$$$$
>  <compound>
CCOC(=O)/C(=C\c1ccc(Br)cc1)C(C)=O

>  <val>
70

$$$$
>  <compound>
COc1cc2c(cc1OC)c1c(OC)c(OC)cc3c1c1c2sc(=S)n1CC3

>  <val>
5

$$$$
>  <compound>
CCS(=O)(=O)/C=C\S(=O)(=O)CC

>  <val>
-147

$$$$
>  <compound>
CCCCCCCCCCCC(O)=C1C(=O)CC(O)CC1=O (centres undefined)

>  <val>
46

$$$$

Provide growth inhibition for all items below, preserving their order.
1. O=C(O)CCC/C(=N\Nc1ccccc1)C(=O)O
2. CC1(C)OC2C(COC(c3ccccc3)(c3ccccc3)c3ccccc3)OC(n3cnc4c(N)ncnc43)C2O1 (centres undefined)
3. CC(O[Si](C)(C)C(C)(C)C)C(=O)Sc1ccccn1 (centres undefined)

result:
1: 7; 2: 32; 3: -9

Provide growth inhibition for all items below, preserving their order.
1. O=C1OC(c2cccc(Cl)c2)=N/C1=C\C=C/c1ccccc1
2. O=[N+]([O-])c1ccc2nc(CCl)[nH]c2c1
3. CC[N+](C)(CC)CCC(=O)/C=C/c1ccccc1
4. Fc1cccc2c1cc1ccc3cccc4ccc2c1c34
5. O=C1Oc2ccccc2C(=O)/C1=C/N1C(=O)/C(=C/c2ccccc2)NC1=S
6. O=[N+]([O-])c1cccc(/C=N/Nc2ccc3ccccc3n2)c1O

result:
1: -16; 2: 49; 3: 11; 4: -5; 5: -33; 6: 16

Provide growth inhibition for all items below, preserving their order.
1. c1cnc2c(Oc3nc(Oc4cccc5cccnc45)nc(Oc4cccc5cccnc45)n3)cccc2c1
2. CCCCCCSc1nn(CCC#N)c(=O)[nH]c1=O
3. CN(C)CCCNc1cc(O)c2c(c1O)C(=O)c1ccccc1C2=O
4. O=[N+]([O-])c1ccccc1C1CN=NN1c1ccccc1 (centres undefined)
5. CCCCCCCCCCCCCCNCCC(=O)O
6. CS(=O)(=O)OCCN(CCOS(C)(=O)=O)c1ccc(C=Nc2cc(Cl)c(O)c(Cl)c2)c(Cl)c1
7. CN1C(=O)c2cccc3c([N+](=O)[O-])ccc(c23)C1=O
8. Nc1ccc2nnnn2c1

result:
1: 30; 2: 3; 3: 16; 4: 0; 5: -13; 6: 9; 7: 15; 8: 14

query: Item under review: Cc1cc(C(O)(C(F)(F)F)C(F)(F)F)cc(C(O)(C(F)(F)F)C(F)(F)F)c1 . Reported growth inhibition?
result: 1

###

Assay: NCI Yeast Anticancer Drug Screen. Data for the rad50 strain (AID 155);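 further: 0% = growth of vehicle-only cultures of the same strain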
Details: S. cerevisiae rad50 strain growth inhibition; at 5.0 µM (retest, dose inferred, filed as 0.5); stronger effect = higher value
About 79,000 compounds went through this panel and 15% of them were active in at least one assay; those are over-represented in the sample as a whole.
For each of the compounds below, state its growth inhibition.
Give bare numbers, in %.

>  <compound>
O=[N+]([O-])c1c(Cl)cccc1-c1c[nH]cc1Cl

>  <endpoint name>
growth inhibition

>  <val>
12

$$$$

Provide growth inhibition for all items below, preserving their order.
1. FC(F)(F)c1[nH]nc(-c2ccc(Cl)cc2)c1N=NN1CCOCC1
2. COc1cccc(C2c3cc4c(cc3OC(N3CCCC3)C2c2ccccc2)OCO4)c1O (stereo unspecified)

result:
98
24

Provide growth inhibition for all items below, preserving their order.
1. O=[N+]([O-])c1ccc(S)c(Cl)c1
2. COc1c2c(c(C)c3ccc4ccccc4c13)CCN=C2
3. CC(C)(C)CC(C)(C)c1ccc(O)c(Cl)c1
4. C=CCCCCO/N=C/c1c2c(O)c3c(O)c(C)c4c(c3c1O)C(=O)C(C)(O/C=C/C(OC)C(C)C(OC(C)=O)C(C)C(O)C(C)C(O)C(C)/C=C/C=C(\C)C(=O)N2)O4 (stereo unspecified)
5. Cc1[nH]nc(C(=O)N(C)C)c1N=NN(C)C

result:
16
-11
-3
44
-61

Provide growth inhibition for all items below, preserving their order.
1. COC(=O)C1(c2ccc(N(C)C)cc2OC)CCCN(C(=O)Oc2ccccc2[N+](=O)[O-])CCc2c1[nH]c1ccccc21 (stereo unspecified)
2. O=[N+]([O-])c1ccccc1C1CN=NN1c1ccccc1 (stereo unspecified)
3. O=P1(Cc2ccccc2)c2ccccc2-c2ccccc21

result:
1: 69; 2: -9; 3: -21

###

For each of the molecules below, state its growth inhibition.
Assay: NCI Yeast Anticancer Drug Screen. Data for the cln2 rad14 strain (AID 165);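 further: 0% = growth equal to vehicle treated cultures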
Conditions: S. cerevisiae cln2 rad14 strain, at 5.0 µM (retest, dose inferred, filed as 0.5), stronger effect = higher value
This is part of a sample that, as a whole, favours compounds with a hit. Of some 79,000 tested, about 15% had one in any assay.
One number for each entry, in %.

>  <molecule>
CC(=O)NCCN(C)C

>  <endpoint unit>
%

>  <val>
-2

$$$$

Provide growth inhibition for all items below, preserving their order.
1. O=[N+]([O-])C(/C=C(\Cl)n1nnc2ccccc21)=C(/Cl)n1nnc2ccccc21
2. COc1cccc(/C=C2/Sc3scc(-c4ccccc4)[n+]3C2=O)c1O
3. O=[N+]([O-])c1cc([N+](=O)[O-])c2ccccc2c1O
4. C(/C=C/CC=Nc1ccccc1)=Nc1ccccc1

result:
11
-12
-6
-4

Provide growth inhibition for all items below, preserving their order.
1. Oc1c(Cl)ccc2cccnc12
2. CCNC(=O)COc1ccc(Cl)cc1Cl
3. CCC(c1ccccc1)N1C(=O)c2ccccc2S1(=O)=O (stereo not drawn)
4. CCCCCCCCCCCC1=NCC(C)N1 (stereo not drawn)
5. CCOC(=O)Cc1csc(/C=C/c2ccc(OC)c(OC)c2)n1

result:
98
7
-6
-46
3

Provide growth inhibition for all items below, preserving their order.
1. CCCCCCCCCCCN1C(=O)c2ccccc2S1(=O)=O
2. CN1C(=O)c2cccc3c([N+](=O)[O-])ccc(c23)C1=O
3. O=c1c2cc3ccccc3cc2c(=O)n2n1CC=CC2

result:
[-14, 10, 4]
